Target: human ether-à-go-go-related gene (hERG) potassium channel (human);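 note: peak tail current of the secondary pulse compared with the same well before compound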
Sequence (Q12809 whole entry, looked up): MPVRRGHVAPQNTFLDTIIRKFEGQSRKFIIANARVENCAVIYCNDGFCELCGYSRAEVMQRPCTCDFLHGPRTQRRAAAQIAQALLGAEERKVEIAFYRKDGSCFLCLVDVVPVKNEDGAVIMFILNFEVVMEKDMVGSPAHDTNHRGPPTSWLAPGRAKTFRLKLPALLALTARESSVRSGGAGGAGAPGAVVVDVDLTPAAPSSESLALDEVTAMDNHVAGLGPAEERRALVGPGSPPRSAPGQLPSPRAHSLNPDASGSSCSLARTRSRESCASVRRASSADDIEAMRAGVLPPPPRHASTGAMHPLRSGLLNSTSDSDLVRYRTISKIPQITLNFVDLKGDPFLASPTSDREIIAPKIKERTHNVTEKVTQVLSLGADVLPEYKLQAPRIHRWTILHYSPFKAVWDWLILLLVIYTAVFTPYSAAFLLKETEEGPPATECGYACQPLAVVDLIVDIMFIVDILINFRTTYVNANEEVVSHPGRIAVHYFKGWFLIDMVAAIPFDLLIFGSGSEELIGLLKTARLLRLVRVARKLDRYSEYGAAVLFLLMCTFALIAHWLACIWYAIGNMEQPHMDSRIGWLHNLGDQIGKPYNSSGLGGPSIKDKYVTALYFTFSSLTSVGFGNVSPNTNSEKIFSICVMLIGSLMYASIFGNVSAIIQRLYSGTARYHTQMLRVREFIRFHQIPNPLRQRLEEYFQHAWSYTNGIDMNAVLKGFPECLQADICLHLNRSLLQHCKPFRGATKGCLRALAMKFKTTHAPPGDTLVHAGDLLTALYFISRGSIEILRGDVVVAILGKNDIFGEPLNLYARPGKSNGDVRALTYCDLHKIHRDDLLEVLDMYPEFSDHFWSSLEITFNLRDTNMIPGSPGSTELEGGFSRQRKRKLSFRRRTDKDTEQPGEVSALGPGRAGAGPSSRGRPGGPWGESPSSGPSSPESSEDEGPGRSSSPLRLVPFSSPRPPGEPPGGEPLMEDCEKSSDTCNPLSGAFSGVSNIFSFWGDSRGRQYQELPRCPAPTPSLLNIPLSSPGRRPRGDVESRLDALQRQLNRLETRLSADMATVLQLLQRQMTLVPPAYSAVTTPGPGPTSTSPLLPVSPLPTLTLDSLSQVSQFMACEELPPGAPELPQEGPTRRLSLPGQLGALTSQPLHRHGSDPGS
Assay: primary screen, population patch clamp on CHO cells stably expressing hERG; higher = less effect of the substance
About 14,000 (4.5%) of roughly 310,000 compounds showed an effect of 50% or more. Effects have a minus sign here. This is one part of a sample in which strong results are shown more often than they occur.
metricName: hERG current change (%, negative = inhibition) at 10uM (%)

{"columns": ["compound", "testResult"],
 "data": [
  ["Cc1ccsc1C(=O)C1CCCN(CCO)C1 (centres unmarked)", 5.34],
  ["COc1cc2nc(/C=C/c3cc(OC)c(OC)c(OC)c3)sc2cc1SC", 5.92],
  ["CCOc1ccc(C(N)=O)cc1OC", 6.13],
  ["CCc1ccc(-c2cc(C)no2)cc1S(=O)(=O)N1CCN(c2ccc(F)cc2)CC1", 7.09],
  ["C=CCNC(=O)/C(=C/c1cccc([N+](=O)[O-])c1)NC(=O)c1ccccc1", -31.2],
  ["CC(C)(C)c1ccc(C(=O)N/C(=C\\c2cccc([N+](=O)[O-])c2)C(=O)Nc2cccc(C(=O)O)c2)cc1", 12.7],
  ["COc1ccc(-c2cc(C)no2)cc1S(=O)(=O)N1CCCCC1", 2.3],
  ["Cn1cc(Br)c(C(=O)Nc2sc3c(c2C(N)=O)CCC3)n1", 18.4],
  ["COc1ccc(COC(=O)Nc2cn(C)nc2C(F)(F)F)cc1", -7.76],
  ["Cc1noc(C)c1S(=O)(=O)N1CCN(c2ccc(Cl)cc2)CC1", -6.26],
  ["CCc1ccc(-c2cc(C)no2)cc1S(=O)(=O)N1CCN(c2ccccn2)CC1", 4.29],
  ["O=[N+]([O-])c1cc(S(=O)(=O)/N=C(/c2ccccc2)N2CCOCC2)ccc1Cl", -23.9],
  ["O=C(N/N=C/c1ccc(Cl)cc1)c1nc2ccc([N+](=O)[O-])cc2c(=O)[nH]1", -27.3],
  ["COCCNC(=O)CSc1ncnc2sc(-c3ccccc3)cc12", 2.83],
  ["COc1ccc(-c2cc(C)no2)cc1S(=O)(=O)N1CCN(c2ccccc2F)CC1", 3.36],
  ["C=CCNC(=O)/C(=C/c1cccc([N+](=O)[O-])c1)NC(=O)c1ccco1", -27.5],
  ["Cc1cc(-c2ccc(C)c(S(=O)(=O)N3CCN(c4ccccn4)CC3)c2)on1", -21.2],
  ["Cc1cc(-c2ccc(C)c(S(=O)(=O)N3CCN(c4ccc([N+](=O)[O-])cc4)CC3)c2)on1", -67.8],
  ["Cc1nc2c(Br)c3nc(C(F)(F)F)[nH]c3c(Br)c2[nH]1", -4.86],
  ["Cc1noc(C)c1S(=O)(=O)N1CCN(c2ccccc2)CC1", -5.33]
]}
